Entries with reported IC50 on Serine/threonine-protein kinase Chk2 (Homo sapiens)
Sequence (O96017 whole entry): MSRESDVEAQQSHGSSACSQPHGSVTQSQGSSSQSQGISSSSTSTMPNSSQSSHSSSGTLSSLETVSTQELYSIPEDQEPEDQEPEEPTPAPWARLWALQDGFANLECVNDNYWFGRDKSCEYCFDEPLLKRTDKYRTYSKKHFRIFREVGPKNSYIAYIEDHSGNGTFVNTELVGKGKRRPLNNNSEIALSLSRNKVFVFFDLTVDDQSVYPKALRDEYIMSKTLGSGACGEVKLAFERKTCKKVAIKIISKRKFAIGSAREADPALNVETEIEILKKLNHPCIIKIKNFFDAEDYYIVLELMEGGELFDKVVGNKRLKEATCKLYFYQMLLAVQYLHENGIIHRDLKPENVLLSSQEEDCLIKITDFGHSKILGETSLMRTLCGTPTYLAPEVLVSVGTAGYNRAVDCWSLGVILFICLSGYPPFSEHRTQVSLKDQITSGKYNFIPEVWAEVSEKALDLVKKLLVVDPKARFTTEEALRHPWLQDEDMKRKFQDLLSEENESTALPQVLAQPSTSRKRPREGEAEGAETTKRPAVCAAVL
Give bare numbers, in µM.

{"columns": ["smiles", "assay readout", "measurement"],
 "data": [
  ["Cc1cn2c(/C=N/NC(=N)N)c(-c3ccc([N+](=O)[O-])cc3)nc2s1.Cl", "IC50", 83],
  ["CCc1cn2c(/C=N/NC(=N)N)c(-c3cc([N+](=O)[O-])c(Cl)cc3Cl)nc2s1", "IC50", 59],
  ["N=C(N)N/N=C\\c1c(-c2ccc([N+](=O)[O-])cc2)nc2sc(Br)cn12", "IC50", 88.5],
  ["N=C(N)N/N=C/c1c(-c2ccc(N)cc2)nc2sccn12", "IC50", 67.5],
  ["N=C(N)N/N=C/c1c(-c2ccc(Cl)cc2)nc2sc(Cl)cn12", "IC50", 49.3],
  ["CCCc1cn2c(/C=N/NC(=N)N)c(-c3ccc(Cl)c([N+](=O)[O-])c3)nc2s1", "IC50", 90.5],
  ["N=C(N)N/N=C\\c1c(-c2ccc(F)c([N+](=O)[O-])c2)nc2sccn12", "IC50", 77.5],
  ["N=C(N)N/N=C/c1c(-c2ccc(F)cc2)nc2sc(Cl)cn12", "IC50", 90]
]}

In the following, a different molecule is considered.
# return IC50 of `Cc1cn2c(/C=N\NC(=N)N)c(-c3ccc(F)c([N+](=O)[O-])c3)nc2s1` (system: Serine/threonine-protein kinase Chk2 (Homo sapiens))
18.8
